B1: TPR 5TU (parent)
chain: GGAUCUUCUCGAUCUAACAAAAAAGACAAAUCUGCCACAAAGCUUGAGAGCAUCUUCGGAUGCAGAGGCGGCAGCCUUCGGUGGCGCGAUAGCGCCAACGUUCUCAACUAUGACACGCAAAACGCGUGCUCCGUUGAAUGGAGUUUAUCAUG

variants of: B1; test: polymerase ribozyme fitness, log enrichment relative to wild type (log ratio); higher = more active; in vitro selection for triplet polymerase activity
This sample holds only a part of the variants without activity.
If the reported polymerase ribozyme fitness (log ratio) equals or exceeds -3, assign yes (1). If not, assign no (0).

• U4G C69G C96U A142C = no (0)
• U31G C32U C75G A98G A121C G133A = no (0)
• G92C U101G = yes (1)
• A47C A49C G65A G84A A113G G141A = no (0)
• G50A C57A C99A = yes (1)
• G11C A20U C36U A60G C93G = no (0)
• C18U C85G U145A = yes (1)
• C36A C75U C95A C129G = no (0)
• A17G C18G A40C C85G A106U G124U C125U = no (0)
• A19G A26U C85A A97C A119U C123U = no (0)
• A3C A20C C38U A41C U53A G71A C93A G94U G126C = no (0)
• G50A G141C = yes (1)
• C54A G94U C123G C125A U134C = no (0)
• U6A G25U = yes (1)
• G62C G68U A89G C108A A113U = no (0)
• G25U G83A = no (0)
• G50A U56A = yes (1)
• C87G C116U = no (0)
• A24G A40C U55G A97U = no (0)
• A39C A47C G62A C85U A98U U134A = no (0)
• A49C G84C = no (0)
• A66G G92C C95A C103U C108G U151C = no (0)
• U127G G141A = no (0)
• C27U G50U U55A C96A A110G G133U = no (0)
• U56A U61G A91C U127C U148C A150U = no (0)
• C57U A113C = yes (1)
• U15C A19G C69G C76A C79G G84U C95A A110U = no (0)
• U44A U61G A66C A91U C132U G141C = no (0)
• C51A G74A C85A C114A = no (0)
• G84U C99G U148A = no (0)
• A40C C76U C95A C131G G141U = yes (1)
• U31A C93A A115C = yes (1)
• U101G A113U = yes (1)
• C43U C79A = no (0)
• U82G C93A = yes (1)
• C76A G83C A137G = no (0)
• C14G C51U U61A = no (0)
• G58A = yes (1)
• U56A U109C = no (0)
• C57G G74C = no (0)
• G50A C76A G92A U101G G128U U130G = no (0)
• C18G A21G C93U C149A = no (0)
• A22C G59C G83A A89C = yes (1)
• C75U C85U U111G A121U G152A = no (0)
• U109G G140U = no (0)
• A41C G68C = no (0)
